meta.source: PubChem BioAssay AID1963967

test system: 855422-203-R-J1-PDC spheroids with HUVEC/MSC, viability; experiment: Anticancer human tumor 855422-203-R-J1-PDC patient-derived bladder carcinoma cell line growth inhibition [PI3K]; details: second compound 1 µM; first compound 0.001 µM; active = viability on the fitted dose curve at most 10% of control; inactive = the rest
In this exercise, the only acceptable responses are active, inactive

molecule="Cn1ncnc1[C@H]1c2n[nH]c(=O)c3cc(F)cc(c23)N[C@@H]1c1ccc(F)cc1 + CC(Nc1ccc2c(c1)OCCn1cc(N3C(=O)OCC3C(F)F)nc1-2)C(N)=O" classification=inactive

For Cn1ncnc1[C@H]1c2n[nH]c(=O)c3cc(F)cc(c23)N[C@@H]1c1ccc(F)cc1 + Cc1nc(NC(=O)N2CCCC2C(N)=O)sc1-c1ccnc(C(C)(C)C(F)(F)F)c1 , which call appears in the assay record? inactive

Which outcome was assigned to CC(=O)c1c(C)c2cnc(Nc3ccc(N4CCNCC4)cn3)nc2n(C2CCCC2)c1=O + CC(Nc1ncnc2nc[nH]c12)c1cc2cccc(Cl)c2c(=O)n1-c1ccccc1 in this test? inactive

Any idea what this test logged for CC(C)n1nc(-c2ccc3oc(N)nc3c2)c2c(N)ncnc21 + COc1c(OCCCN2CCOCC2)ccc2c3n(c(=NC(=O)c4cnc(N)nc4)nc12)CCN3 ? active

Given CC(=O)c1c(C)c2cnc(Nc3ccc(N4CCNCC4)cn3)nc2n(C2CCCC2)c1=O + COc1c(OCCCN2CCOCC2)ccc2c3n(c(=NC(=O)c4cnc(N)nc4)nc12)CCN3 , state the outcome it received in this test. active

Answer briefly: the call reported for CC(C)n1nc(-c2ccc3oc(N)nc3c2)c2c(N)ncnc21 + Cc1nc(NC(=O)N2CCCC2C(N)=O)sc1-c1ccnc(C(C)(C)C(F)(F)F)c1 in this assay. inactive

###

Form field: viability, T/C (one value per entry).
test system: 855422-203-R-J1-PDC spheroids with HUVEC/MSC, viability; experiment: Anticancer human tumor 855422-203-R-J1-PDC cell line growth inhibition [PI3K]; settings: second compound 1 µM; first compound 10 µM; active compounds read low;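 also: agents incubated with spheroids for one week before read-out; 100% = DMSO vehicle-treated control wells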
Field: numeric (%). Do not append units.

Consider the worked cases shown below.
compound="C#Cc1c(F)ccc2cc(O)cc(-c3ncc4c(N5CC6CCC(C5)N6)nc(OCC56CCCN5CC(F)C6)nc4c3F)c12 (stereo unspecified) + CC(Nc1ncnc2nc[nH]c12)c1cc2cccc(Cl)c2c(=O)n1-c1ccccc1" unittag=% assayresult=115
compound="Cn1nccc1Nc1nccc(-c2ccn(C(CO)c3ccc(Cl)c(F)c3)c(=O)c2)n1 (stereo unspecified) + Cc1nc(NC(=O)N2CCCC2C(N)=O)sc1-c1ccnc(C(C)(C)C(F)(F)F)c1" unittag=% assayresult=17.9
compound="CC(C)NCC(C(=O)N1CCN(c2ncnc3c2C(C)CC3O)CC1)c1ccc(Cl)cc1 (stereo unspecified) + CC(Nc1ccc2c(c1)OCCn1cc(N3C(=O)OCC3C(F)F)nc1-2)C(N)=O" unittag=% assayresult=10.5

Fill in: viability, T/C of C#Cc1c(F)ccc2cc(O)cc(-c3ncc4c(N5CC6CCC(C5)N6)nc(OCC56CCCN5CC(F)C6)nc4c3F)c12 (stereo unspecified) + Cc1nc(NC(=O)N2CCCC2C(N)=O)sc1-c1ccnc(C(C)(C)C(F)(F)F)c1 is ___ 63.3

# query: viability, T/C of entry CC(C)NCC(C(=O)N1CCN(c2ncnc3c2C(C)CC3O)CC1)c1ccc(Cl)cc1 (stereo unspecified) + Cc1nc(NC(=O)N2CCCC2C(N)=O)sc1-c1ccnc(C(C)(C)C(F)(F)F)c1 11.1

Entry C=CC(=O)N1CCN(c2nc(=O)n(-c3c(C)ccnc3C(C)C)c3nc(-c4c(O)cccc4F)c(F)cc23)C(C)C1 (stereo unspecified) + COc1c(OCCCN2CCOCC2)ccc2c3n(c(=NC(=O)c4cnc(N)nc4)nc12)CCN3 has what viability, T/C? 1.93
